- Organism: Homo sapiens
- Protocol Text: Selectivity ratio of Ki for human ACE N-domain expressed in CHO cells to Ki for human ACE C-domain expressed in CHO cells
- Format: cell-based
# Ratio Ki per record follows
Respond using a number only.

The examples below pair each entry with its known result.
>>> measured_number("CCCC[C@H](N[C@@H](CCc1ccccc1)C(=O)O)C(=O)N[C@@H](Cc1c[nH]c2ccccc12)C(=O)O")
37
>>> measured_number("Cc1ccc([C@H]2CC[C@@H](C(=O)O)N2C(=O)CN[C@@H](CCc2ccccc2)C(=O)O)cc1")
8
>>> measured_number("CCCC[C@H](N[C@@H](CCc1ccccc1)C(=O)O)C(=O)N[C@@H](Cc1ccc(O)cc1)C(=O)O")
3.5

Let's switch to this molecule now.
-- ask For NCCCC[C@H](N[C@@H](CCc1ccccc1)C(=O)O)C(=O)N[C@@H](Cc1c[nH]c2ccccc12)C(=O)O , write its Ratio Ki.
-- reply 189

---

Some compounds, each annotated with its measured Ki.
- Target Or Test System: Angiotensin-converting enzyme (Homo sapiens, UniProt P12821)
- Sequence (P12821 whole entry): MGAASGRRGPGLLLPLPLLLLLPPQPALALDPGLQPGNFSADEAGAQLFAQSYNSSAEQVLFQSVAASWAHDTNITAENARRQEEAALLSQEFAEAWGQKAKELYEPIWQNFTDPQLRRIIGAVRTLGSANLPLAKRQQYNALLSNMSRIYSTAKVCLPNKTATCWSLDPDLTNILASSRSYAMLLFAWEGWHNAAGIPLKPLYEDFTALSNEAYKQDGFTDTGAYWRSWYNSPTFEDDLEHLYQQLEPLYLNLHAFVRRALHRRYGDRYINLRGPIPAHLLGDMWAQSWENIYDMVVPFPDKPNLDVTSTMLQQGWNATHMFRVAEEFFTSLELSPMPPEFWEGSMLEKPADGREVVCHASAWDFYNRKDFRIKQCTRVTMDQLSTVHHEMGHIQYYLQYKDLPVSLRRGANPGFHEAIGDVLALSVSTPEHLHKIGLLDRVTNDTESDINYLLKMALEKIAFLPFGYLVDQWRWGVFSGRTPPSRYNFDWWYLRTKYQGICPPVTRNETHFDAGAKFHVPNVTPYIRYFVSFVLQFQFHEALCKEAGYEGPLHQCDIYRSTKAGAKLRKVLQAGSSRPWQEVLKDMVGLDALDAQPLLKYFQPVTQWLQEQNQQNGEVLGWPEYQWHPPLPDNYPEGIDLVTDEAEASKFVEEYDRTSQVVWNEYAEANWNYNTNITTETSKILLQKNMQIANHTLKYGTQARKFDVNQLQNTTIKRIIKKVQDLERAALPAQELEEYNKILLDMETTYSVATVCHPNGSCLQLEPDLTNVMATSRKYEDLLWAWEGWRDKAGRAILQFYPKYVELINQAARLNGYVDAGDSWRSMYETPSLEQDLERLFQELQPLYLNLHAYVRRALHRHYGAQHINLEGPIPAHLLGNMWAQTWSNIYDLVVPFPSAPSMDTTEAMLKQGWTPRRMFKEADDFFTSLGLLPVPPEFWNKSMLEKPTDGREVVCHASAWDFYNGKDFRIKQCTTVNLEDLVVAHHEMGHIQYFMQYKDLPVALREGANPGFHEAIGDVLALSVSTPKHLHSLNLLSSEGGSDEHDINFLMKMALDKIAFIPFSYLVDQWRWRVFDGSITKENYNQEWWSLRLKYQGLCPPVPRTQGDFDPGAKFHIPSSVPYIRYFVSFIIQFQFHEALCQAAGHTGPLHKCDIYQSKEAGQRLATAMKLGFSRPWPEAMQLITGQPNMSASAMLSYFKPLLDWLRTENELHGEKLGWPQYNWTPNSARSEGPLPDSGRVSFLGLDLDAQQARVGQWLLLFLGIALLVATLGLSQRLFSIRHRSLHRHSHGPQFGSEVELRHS
- Protocol Text: Inhibition of recombinant human ACE C-domain expressed in CHO cells using Cbz-Phe-His-Leu as substrate preincubated for 15 mins followed by substrate addition and measured after 10 mins by fluorescence spectrophotometric analysis
All answers are understood in nM, so give the number only.

The following compounds have reported results that may help.
>>> measured_number("NCCCC[C@H](N[C@@H](CCc1ccccc1)C(=O)O)C(=O)N[C@@H](Cc1c[nH]c2ccccc12)C(=O)O")
9
>>> measured_number("CCCC[C@H](N[C@@H](CCc1ccccc1)C(=O)O)C(=O)N[C@@H](Cc1c[nH]c2ccccc12)C(=O)O")
100
>>> measured_number("CCCC[C@H](N[C@@H](CCc1ccccc1)C(=O)O)C(=O)N[C@@H](Cc1ccc(O)cc1)C(=O)O")
35

Please examine the following record next.
-- ask Give the reported Ki for this compound. Cc1ccc([C@H]2CC[C@@H](C(=O)O)N2C(=O)CN[C@@H](CCc2ccccc2)C(=O)O)cc1
-- reply 440

---

- Target Or Test System: Angiotensin-converting enzyme (Homo sapiens)
- Protocol Text: Inhibition of recombinant human ACE N-domain expressed in CHO cells using Cbz-Phe-His-Leu as substrate preincubated for 15 mins followed by substrate addition and measured after 10 mins by fluorescence spectrophotometric analysis
# reported Ki; entries follow
Supply the numeric figure in µM, leaving out any unit text.

>>> measured_number("NCCCC[C@H](N[C@@H](CCc1ccccc1)C(=O)O)C(=O)N[C@@H](Cc1c[nH]c2ccccc12)C(=O)O")
1.7

-- ask Respond only with Ki recorded for CCCC[C@H](N[C@@H](CCc1ccccc1)C(=O)O)C(=O)N[C@@H](Cc1ccc(O)cc1)C(=O)O
-- reply 0.12

-- ask Answer with the recorded Ki of CCCC[C@H](N[C@@H](CCc1ccccc1)C(=O)O)C(=O)N[C@@H](Cc1c[nH]c2ccccc12)C(=O)O only.
-- reply 3.79

-- ask Annotate the compound Cc1ccc([C@H]2CC[C@@H](C(=O)O)N2C(=O)CN[C@@H](CCc2ccccc2)C(=O)O)cc1 with its measured Ki.
-- reply 3.4
